Molecular target: APJ (orphan G protein-coupled receptor protein)
Sequence (P35414 whole entry): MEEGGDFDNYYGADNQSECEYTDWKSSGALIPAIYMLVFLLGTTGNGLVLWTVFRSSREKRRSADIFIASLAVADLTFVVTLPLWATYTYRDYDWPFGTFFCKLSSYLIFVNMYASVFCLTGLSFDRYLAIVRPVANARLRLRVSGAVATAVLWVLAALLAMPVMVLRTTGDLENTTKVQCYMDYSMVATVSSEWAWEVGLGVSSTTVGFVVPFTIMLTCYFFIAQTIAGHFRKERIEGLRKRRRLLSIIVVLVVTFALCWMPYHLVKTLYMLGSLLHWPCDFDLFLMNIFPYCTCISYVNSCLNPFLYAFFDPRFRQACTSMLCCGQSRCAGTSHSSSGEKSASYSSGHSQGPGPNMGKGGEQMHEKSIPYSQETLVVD
Assay: cell-based or functional assay
Starred links: 1 amine or outer side, 2 acyl side, 3 side chain; linkers in the order of their positions; H or OH if unused. Non-standard residues stand in square brackets, D forms with d. No end group written: not given here. *: point of attachment. Phe(4-Cl) = N[C@@H](Cc1ccc(Cl)cc1)C(=O)O; Adipoyl = O=C(CCCCC(=O)[*:2])[*:1]; Cha = N[C@@H](CC1CCCCC1)C(=O)O; pGlu = O=C1CC[C@@H](C(=O)O)N1; Nle = CCCC[C@H](N)C(=O)O; Dap = NC[C@H](N)C(=O)O; Hexanoyl = CCCCCC(=O)*
Lab note: compare EC50, inhibition of forskolin-stimulated cAMP production (CHO-A10 clone 6 cells) with 0.5 nM, writing Condition met if less and Condition not met if equal or more.

binder	class
RPRLFHKGP[Cha]X (not fully specified (residue 11); printed as Arg-Pro-Arg-Leu-Phe-His-Lys-Gly-Pro-Cha-Phe(Cl)) [Arg-Pro-Arg-Leu-Phe-His-Lys-Gly-Pro-Cha-Phe(Cl)]	Condition met
RRXRPRLSHKGPMPF (N-terminal branched Arg-Arg-Lys(Arg-Arg); peptide derivative; Xaa means Lys(Arg-Arg)) [Arg-Arg-Lys(Arg-Arg)-Arg-Pro-Arg-Leu-Ser-His-Lys-Gly-Pro-Met-Pro-Phe]	Condition not met
XRPRLSFKGPMPF (N-terminal pGlu; peptide derivative; Xaa means pGlu) [pGlu-Arg-Pro-Arg-Leu-Ser-Phe-Lys-Gly-Pro-Met-Pro-Phe]	Condition met
RPRLFHKGP[Cha]PX (not fully specified (residue 12); printed as Arg-Pro-Arg-Leu-Phe-His-Lys-Gly-Pro-Cha-Pro-Phe(Cl)) [Arg-Pro-Arg-Leu-Phe-His-Lys-Gly-Pro-Cha-Pro-Phe(Cl)]	Condition not met
RPRLFHKGP[Cha]PF [Arg-Pro-Arg-Leu-Phe-His-Lys-Gly-Pro-Cha-Pro-Phe]	Condition met
RRQRPRLSHKGP[Nle]PY [Arg-Arg-Gln-Arg-Pro-Arg-Leu-Ser-His-Lys-Gly-Pro-Nle-Pro-Tyr]	Condition met
[pGlu]RPRLFRRGPMPF [pGlu-Arg-Pro-Arg-Leu-Phe-Arg-Arg-Gly-Pro-Met-Pro-Phe]	Condition met
XRPRLSHFGPMPF (N-terminal pGlu; peptide derivative; Xaa means pGlu) [pGlu-Arg-Pro-Arg-Leu-Ser-His-Phe-Gly-Pro-Met-Pro-Phe]	Condition met
RPRLS[Dap](Hexanoyl)RGP[Cha]P[Phe(4-Cl)] [Arg-Pro-Arg-Leu-Ser-Dap(C6)-Arg-Gly-Pro-Cha-Pro-Phe(Cl)]	Condition not met
XRPRLSAKGPMPF (N-terminal pGlu; peptide derivative; Xaa means pGlu) [pGlu-Arg-Pro-Arg-Leu-Ser-Ala-Lys-Gly-Pro-Met-Pro-Phe]	Condition met
XRPRLSHLGPMPF (N-terminal pGlu; peptide derivative; Xaa means pGlu) [pGlu-Arg-Pro-Arg-Leu-Ser-His-Leu-Gly-Pro-Met-Pro-Phe]	Condition met
RPRLSHKGPMX (C-terminal Cha; peptide derivative; Xaa means Cha) [Arg-Pro-Arg-Leu-Ser-His-Lys-Gly-Pro-Met-Cha]	Condition met
[pGlu]RPRLSRRGPMPF [pGlu-Arg-Pro-Arg-Leu-Ser-Arg-Arg-Gly-Pro-Met-Pro-Phe]	Condition met
RPRLSARGP[Cha]X (not fully specified (residue 11); printed as Arg-Pro-Arg-Leu-Ser-Ala-Arg-Gly-Pro-Cha-Phe(Cl)) [Arg-Pro-Arg-Leu-Ser-Ala-Arg-Gly-Pro-Cha-Phe(Cl)]	Condition not met
RPRASHKGP[Cha]PX (not fully specified (residue 12); printed as Arg-Pro-Arg-Ala-Ser-His-Lys-Gly-Pro-Cha-Pro-Phe(Cl)) [Arg-Pro-Arg-Ala-Ser-His-Lys-Gly-Pro-Cha-Pro-Phe(Cl)]	Condition not met
XRPRLSHKGPXPF (N-terminal pGlu; Cha non-natural residue; peptide derivative; Xaa on the 1st position means pGlu.; Xaa on the 11th position means Cha.) [pGlu-Arg-Pro-Arg-Leu-Ser-His-Lys-Gly-Pro-Cha-Pro-Phe]	Condition met
XRPRLSHKGPMX (N-terminal pGlu; C-terminal Cha; peptide derivative; Xaa on the 1st position means pGlu; Xaa on the 12th position means Cha) [pGlu-Arg-Pro-Arg-Leu-Ser-His-Lys-Gly-Pro-Met-Cha]	Condition met
RRQRPRLSARGPX (C-terminal Cha; peptide derivative; Xaa means Cha.) [Arg-Arg-Gln-Arg-Pro-Arg-Leu-Ser-Ala-Arg-Gly-Pro-Cha]	Condition not met
RPRLS[Dap](Adipoyl)RGP[Cha]P[Phe(4-Cl)] [Arg-Pro-Arg-Leu-Ser-Dap(Adi)-Arg-Gly-Pro-Cha-Pro-Phe(Cl)]	Condition met
RPRLSHKGPMX (Nal(2) non-natural residue; peptide derivative; Xaa means Nal(2)) [Arg-Pro-Arg-Leu-Ser-His-Lys-Gly-Pro-Met-Nal(2)]	Condition met
RPRLSARGP[Cha]PF [Arg-Pro-Arg-Leu-Ser-Ala-Arg-Gly-Pro-Cha-Pro-Phe]	Condition not met
RPRLSHKGPMPX (C-terminal Cha; peptide derivative; Xaa means Cha) [Arg-Pro-Arg-Leu-Ser-His-Lys-Gly-Pro-Met-Pro-Cha]	Condition not met
RPRLFARGP[Cha]PX (not fully specified (residue 12); printed as Arg-Pro-Arg-Leu-Phe-Ala-Arg-Gly-Pro-Cha-Pro-Phe(Cl)) [Arg-Pro-Arg-Leu-Phe-Ala-Arg-Gly-Pro-Cha-Pro-Phe(Cl)]	Condition not met
